Source: ChEMBL document CHEMBL1121741

Documented logP across a set of compounds
assay: Partition coefficient (logP); format: physicochemical; conditions: octanol/water
MEASUREMENT LABEL: logP

compound="Oc1cccc(O)c1 [RESORCINOL]" measurement_label=logP measurement=0.85
compound=O=S(=O)(Nc1ccccc1)C(F)(F)F measurement_label=logP measurement=3.03
compound=CS(=O)(=O)Nc1ccccc1 measurement_label=logP measurement=0.95
compound=O=S1(=O)Nc2ccccc2N1 measurement_label=logP measurement=1.12
compound=O=S(=O)(CF)Nc1ccccc1 measurement_label=logP measurement=1.35

----------
Parameter pKa: see the listing below.
assay: Acidity determined spectrometrically; type: ADME
MEASUREMENT LABEL: pKa

compound="CC(C)NCC(O)c1ccc2c(c1)NS(=O)(=O)N2 (stereo unspecified)" measurement=4.68
compound="CC(C)NCC(O)c1cccc(NS(=O)(=O)C(F)(F)F)c1 (stereo unspecified)" measurement=3.63
compound="CC(C)(C)NCC(O)c1ccc2c(c1)NS(=O)(=O)N2 (stereo unspecified)" measurement=4.7
compound="NCC(O)c1ccc2c(c1)NS(=O)(=O)N2 (stereo unspecified)" measurement=4.68
compound="CC(C)NCC(O)c1ccc(NS(=O)(=O)C(F)(F)F)cc1 (stereo unspecified)" measurement=3.65
compound="CNCC(O)c1ccc2c(c1)NS(=O)(=O)N2 (stereo unspecified)" measurement=4.67

----------
assay: Acidity of compound was determined; assay type: ADME
Values of pKa greater than or equal to 8 map to true; values below map to false.

chem_smiles=CS(=O)(=O)Nc1ccccc1 class_label=true
chem_smiles=O=S1(=O)Nc2ccccc2N1 class_label=false
chem_smiles=Oc1cccc(O)c1 class_label=true
chem_smiles=O=S(=O)(Nc1ccccc1)C(F)(F)F class_label=false
chem_smiles=O=S(=O)(CF)Nc1ccccc1 class_label=false
